# Lookup of reported Activity keyed by entry
Tested on: Mus musculus
assay: Analgesic activity in po dosed Mus musculus Swiss albino (mouse) assessed as increase in reaction time after 0.5 hr by tail-flick method relative to control
Assay type: functional
Give the value, in units of %, as a plain number.

Field: example entries. Status: answers known.
{"columns": ["molecule", "targetEntity", "Activity, %"],
 "data": [
  ["CC(C)Cc1ccc(C(C)c2nnc3sc(-c4ccccc4Cl)nn23)cc1 (centres undefined)", "Mus musculus", 19.23],
  ["Cc1nn2c(C(C)c3ccc(CC(C)C)cc3)nnc2s1 (centres undefined)", "Mus musculus", 26.66],
  ["CCc1nn2c(C(C)c3ccc(CC(C)C)cc3)nnc2s1 (centres undefined)", "Mus musculus", 7.18]
]}

The reported value for CC(C)Cc1ccc(C(C)c2nnc3sc(-c4ccc([N+](=O)[O-])cc4Cl)nn23)cc1 (centres undefined) in terms of Activity is 17.34

Measured values drawn from ChEMBL document CHEMBL3044588 for this set.
